Let's look at some compounds and their measured normalized growth.
# assayExplanation: chemical genetic growth profiling, strain panel (AID 1159580);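 also: tested at 20 µM; growth read once vehicle control cultures reached saturation at 30 °C; 1 = growth at the plate median or of vehicle wells; lower values mean less growth of the strain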
# conditionDetails: S. cerevisiae deletion strains, growth OD, locus YDR334W, strain swr1, hits give low values
The whole screen tested about 5,500 compounds, of which about 2,000 (36%) were called active. About 18% were inconclusive and are not listed. Some of the results follow.
Respond with the number and no other words.

Below: 4 compounds and their reported normalized growth.
>  <smilesNotation>
COc1cc([C@@H]2c3cc4c(cc3[C@H](OC(C)=O)[C@H]3COC(=O)[C@H]23)OCO4)cc(OC)c1OC

>  <normalized growth>
1.01

$$$$
>  <smilesNotation>
COc1cc2c3cc1Oc1cc(ccc1O)C[C@@H]1c4c(cc(OC)c(O)c4Oc4ccc(cc4)C[C@@H]3N(C)CC2)CC[N+]1(C)C

>  <normalized growth>
0.979

$$$$
>  <smilesNotation>
Cc1cc2cc3c(C)cc(=O)oc3c(C)c2o1

>  <normalized growth>
1

$$$$
>  <smilesNotation>
CCCN1C[C@H](CSC)C[C@@H]2c3cccc4[nH]cc(c34)C[C@H]21

>  <normalized growth>
1.02

$$$$

# context switch: different compound, same normalized growth
### Prompt Supply recorded normalized growth for O=C1CN2Cc3c(ccc(Cl)c3Cl)N=C2N1 here.
### Response 0.99

Origin of the recorded values: PubChem BioAssay AID1159580
